Overview of reported fluorescence across a group of binders:
- Target Entity: Diaphorase
- Measurement Description: peptide array, 1 uM labeled diaphorase, no FAD
Returns: the value as a bare number; no unit string appended.

Please review the entries below; each comes with its answer.
1) RQYQKHSYAKFSGSG | 6760
2) FGKLYQLYNDGSG | 1910

Q: Need fluorescence of AQVAVDGFYVDGSG , thanks.
A: 2010

Q: Same for QLLQLLFGGSG
A: 3230

Q: Same for RFKYPLDGGSG
A: 5760

Q: Same for WRGFKFADGGSG
A: 5650

Data origin, for the record: patent US20190064177A1
